B1: Membrane-associated guanylate kinase, WW and PDZ domain-containing protein 2, residues 296 to 340; numbered along this chain, Q86UL8 (parent)
chain: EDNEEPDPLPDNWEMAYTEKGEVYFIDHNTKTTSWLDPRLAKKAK

variants of: B1; assay: abundance fitness (aPCA) (normalised: wild type 0, dead -1); higher = more abundant; growth selection in yeast, the domain comes from the species named; settings: Homo sapiens
Decision: abundance fitness >= -0.3 yields y, all other cases yield n.

[
  {
    "Variant Description": "K31P",
    "Qualitative Label": "n"
  },
  {
    "Variant Description": "D7Q",
    "Qualitative Label": "y"
  },
  {
    "Variant Description": "P6A",
    "Qualitative Label": "y"
  },
  {
    "Variant Description": "W35A",
    "Qualitative Label": "n"
  },
  {
    "Variant Description": "L36A",
    "Qualitative Label": "y"
  },
  {
    "Variant Description": "D27R",
    "Qualitative Label": "n"
  },
  {
    "Variant Description": "W35S",
    "Qualitative Label": "n"
  },
  {
    "Variant Description": "G21D",
    "Qualitative Label": "y"
  },
  {
    "Variant Description": "I26Q",
    "Qualitative Label": "y"
  },
  {
    "Variant Description": "Y17D",
    "Qualitative Label": "n"
  },
  {
    "Variant Description": "I26T",
    "Qualitative Label": "n"
  },
  {
    "Variant Description": "D37R",
    "Qualitative Label": "y"
  },
  {
    "Variant Description": "D2L",
    "Qualitative Label": "y"
  },
  {
    "Variant Description": "H28A",
    "Qualitative Label": "n"
  },
  {
    "Variant Description": "D27C",
    "Qualitative Label": "n"
  },
  {
    "Variant Description": "K20A",
    "Qualitative Label": "y"
  },
  {
    "Variant Description": "E22S",
    "Qualitative Label": "y"
  },
  {
    "Variant Description": "T18E",
    "Qualitative Label": "n"
  },
  {
    "Variant Description": "A16L",
    "Qualitative Label": "n"
  },
  {
    "Variant Description": "D11Q",
    "Qualitative Label": "y"
  },
  {
    "Variant Description": "R39C",
    "Qualitative Label": "n"
  },
  {
    "Variant Description": "K43W",
    "Qualitative Label": "y"
  }
]
